// provenance: ChEMBL document CHEMBL1127816

biological target: Estrogen receptor (Rattus norvegicus) (UniProt P06211+Q62986); assay: Relative binding affinity (RBA) on estrogen receptor was measured by in vitro using cytosol from the immature rat uterus; assay type: protein assay
Measured attribute: RBA (%)
Please reply with the bare figure in % and do not write the unit itself.

For orientation, consider the following solved cases.
Compound	Test target	Measured result
CCCCN(C)C(=O)CCCCCCCSC(Cc1ccc(O)cc1)c1ccc(OC)cc1 (stereo not drawn)	Estrogen receptor (Rattus norvegicus) (UniProt P06211+Q62986)	0.05
CCCCN(C)C(=O)CCCCCSC(Cc1ccc(O)cc1)c1ccc(O)cc1 (stereo not drawn)	Estrogen receptor (Rattus norvegicus) (UniProt P06211+Q62986)	0.01

Now take the following compound into account.
Note down RBA recorded for CCCCN(C)C(=O)CCCCCCCCCCC1Cc2cc(O)ccc2[C@H]2CC[C@]3(C)[C@@H](O)[C@H](Cl)C[C@H]3[C@H]12 (stereo partly drawn)
1.2

* * *

biological target: Estrogen receptor (Rattus norvegicus) (UniProt P06211+Q62986); assay: Relative binding affinity (RBA) on estrogen receptor was measured by in vitro using cytosol from the immature rat uterus; type: protein assay
Measured attribute: RBA (%)
Please reply with the bare figure in % and do not write the unit itself.

Compound	Measured result
CCCCN(C)C(=O)CCSC(Cc1ccc(O)cc1)c1ccc(O)cc1 (stereo unspecified)	0.01

Note down RBA recorded for OCCCCCCCCCCCSC(Cc1ccc(O)cc1)c1ccc(O)cc1 (stereo unspecified)
0.02

Note down RBA recorded for CCCCN(C)C(=O)CCSC(Cc1ccc(O)cc1)c1ccc(OC)cc1 (stereo unspecified)
0.01

Note down RBA recorded for COc1ccc(C(Cc2ccc(O)cc2)SCCCCCCCCCCCO)cc1 (stereo unspecified)
0.02

Note down RBA recorded for CCCCN(C)C(=O)CCCCCCCCCCSC(Cc1ccc(O)cc1)c1ccc(O)cc1 (stereo unspecified)
0.01

Note down RBA recorded for CCCCN(C)C(=O)CCCCCCCSC(Cc1ccc(O)cc1)c1ccc(O)cc1 (stereo unspecified)
0.01

* * *

target: Estrogen receptor (Homo sapiens) (UniProt Q92731+P03372); test: Ability to stimulate the basal cell proliferation of ZR-75-1 cells at a dose of 1 uM; type: functional, cell-based
Entries annotated with measured Binding ((ng of DNA) dish-1)

For orientation, consider the following solved cases.
Molecule	Test target	Measured result
CCCCN(C)C(=O)CCCCCCCSC(Cc1ccc(OC)cc1)c1ccc(OC)cc1 (centres undefined)	Estrogen receptor (Homo sapiens) (UniProt Q92731+P03372)	746
CCCCN(C)C(=O)CCCCCCCSC(Cc1ccc(O)cc1)c1ccc(O)cc1 (centres undefined)	Estrogen receptor (Homo sapiens) (UniProt Q92731+P03372)	1410
COc1ccc(C(Cc2ccc(O)cc2)SCCCCCCCCCCCO)cc1 (centres undefined)	Estrogen receptor (Homo sapiens) (UniProt Q92731+P03372)	839

Note down Binding ((ng of DNA) dish-1) recorded for CCCCN(C)C(=O)CCCCCCCCCCCSC(Cc1ccc(O)cc1)c1ccc(OC)cc1 (centres undefined)
807

* * *

biological target: Estrogen receptor (Homo sapiens) (UniProt Q92731+P03372); assay: Ability to inhibit E2-induced proliferation of ZR-75-1 cells at a dose of 1 uM; format: functional, cell-based
Entries annotated with measured DNA content per dish (cell proliferation) ((ng of DNA) dish-1)
Number only, please.

For orientation, consider the following solved cases.
Compound	Measured result
CCCCN(C)C(=O)CCSC(Cc1ccc(OCc2ccccc2)cc1)c1ccc(OC)cc1 (centres undefined)	1020
CCCCN(C)C(=O)CCCCCCCCCCCSC(Cc1ccc(OC)cc1)c1ccc(OC)cc1 (centres undefined)	1350
CCCCN(C)C(=O)CCCCCCCSC(Cc1ccc(OC)cc1)c1ccc(OC)cc1 (centres undefined)	1150

Given CCCCN(C)C(=O)CCSC(Cc1ccc(O)cc1)c1ccc(O)cc1 (centres undefined) , report its DNA content per dish (cell proliferation) ((ng of DNA) dish-1) on Estrogen receptor (Homo sapiens) (UniProt Q92731+P03372).
2600
